# Experiment notes: inhibition of 3D7 malaria parasite growth – strain 3D7 (AID 2306);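 note: 0% = DMSO wells and 100% = chloroquine plus artemisinin control wells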
# Assay setup: P. falciparum 3D7 erythrocytic growth, LDH absorbance, 72 h; at 2 µM; active compounds read high
Parameter measured: growth inhibition (%)
Give the value, in units of %, as a plain number.

[[record]]
molecule = "CCCOc1cccc(C(=O)N[C@@H](Cc2ccccc2)[C@H](O)CNCc2ccccc2OC)c1"
readout_value = 95

[[record]]
molecule = "CC12CCC(=O)N1C(C(=O)Nc1cccc(C(=O)Nc3cccc(C(F)(F)F)c3)c1)CS2 (stereo not given)"
readout_value = 92

[[record]]
molecule = "Cc1nnsc1C(=O)Nc1cccc(-c2ccc(-c3nc4ccccc4[nH]3)cc2)c1"
readout_value = 100


For reference, reported growth inhibition for `COc1ccc(NC(=O)/C=C/c2ccccc2Cl)cc1OCCN1CCC(NC2CC2)CC1` stands at 101

For reference, reported growth inhibition for `COc1ccc2c(=O)c(I)c(C)[nH]c2c1` stands at 96

For reference, reported growth inhibition for `CC1(C)N=C(N)N=C(N)N1OCc1cc(Cl)c(CON2C(N)=NC(N)=NC2(C)C)cc1Cl` stands at 94

For reference, reported growth inhibition for CCN(CC)CCOc1ccc(C(O)(C#CC(O)(c2ccccc2)c2ccc(OCCN(CC)CC)cc2)c2ccccc2)cc1 (stereo not given) stands at 99

For reference, reported growth inhibition for O=C(Nc1ccc(Cl)cc1)OCCn1nnnc1C(c1ccc(Cl)cc1)N1CCOCC1 (stereo not given) stands at 90

For reference, reported growth inhibition for `CCc1ccc(OCCCON2C(N)=NC(N)=NC2(C)C)cc1` stands at 95

For reference, reported growth inhibition for `CCCCCNc1nc(Nc2ccccc2C)nc2ccccc12` stands at 100

====

# Target under test: L-lactate dehydrogenase (Plasmodium falciparum (isolate CDC / Honduras)) (UniProt Q27743)
# Sequence (Q27743 whole entry, looked up): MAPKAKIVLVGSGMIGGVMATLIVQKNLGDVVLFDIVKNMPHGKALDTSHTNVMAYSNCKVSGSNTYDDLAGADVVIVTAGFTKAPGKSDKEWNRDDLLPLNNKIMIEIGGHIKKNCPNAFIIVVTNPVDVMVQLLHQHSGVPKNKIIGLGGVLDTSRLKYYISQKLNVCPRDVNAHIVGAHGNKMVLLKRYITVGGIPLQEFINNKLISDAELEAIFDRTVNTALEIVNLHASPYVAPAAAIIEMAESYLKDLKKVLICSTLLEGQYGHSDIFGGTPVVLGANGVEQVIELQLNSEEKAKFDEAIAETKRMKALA
# Experiment notes: PfLDH activity inhibition – cell lysate, 3D7 strain, counter-screen for P. falciparum growth inhibition project (AID 2304);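 note: 0% = vehicle and 100% = reference inhibitor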
# Assay setup: P. falciparum 3D7 crude extract, LDH APAD/NBT absorbance; at 2 µM; active compounds read high
Parameter measured: inhibition (%)
Give the value, in units of %, as a plain number.

[[record]]
compound = "O=c1cc(NCCCNCc2cccc(SC(F)(F)F)c2)[nH]c2ccccc12"
target_under_test = "L-lactate dehydrogenase (Plasmodium falciparum (isolate CDC / Honduras)) (UniProt Q27743)"
parameter_measured = "inhibition"
readout_value = 6

[[record]]
compound = "COc1cccc(OC)c1OCCCOc1c(C)nc(N)nc1N"
target_under_test = "L-lactate dehydrogenase (Plasmodium falciparum (isolate CDC / Honduras)) (UniProt Q27743)"
parameter_measured = "inhibition"
readout_value = 0

[[record]]
compound = "CC(=O)NCC(=O)NC1=NC(C)(C)N(OCc2ccc3ccccc3c2)C(N)=N1"
target_under_test = "L-lactate dehydrogenase (Plasmodium falciparum (isolate CDC / Honduras)) (UniProt Q27743)"
parameter_measured = "inhibition"
readout_value = -1

[[record]]
compound = "Cc1cccc2[nH]c(-c3cccc(-c4ccc(CNCc5cnn(-c6ccccc6)n5)cc4)c3)nc12"
target_under_test = "L-lactate dehydrogenase (Plasmodium falciparum (isolate CDC / Honduras)) (UniProt Q27743)"
parameter_measured = "inhibition"
readout_value = -4

[[record]]
compound = "COc1ccccc1-n1ccnc1SCC(=O)Nc1cccc(C(F)(F)F)c1"
target_under_test = "L-lactate dehydrogenase (Plasmodium falciparum (isolate CDC / Honduras)) (UniProt Q27743)"
parameter_measured = "inhibition"
readout_value = -2


For reference, reported inhibition for Cc1noc(-c2cccs2)c1C(=O)NC(C)c1cccc2ccccc12 (stereo not given) stands at -4

For reference, reported inhibition for CC(C)CCNC(=O)C1Cc2c([nH]c3ccc(Br)cc23)C2(CCN(CCc3ccccc3)CC2)N1 (stereo not given) stands at 2

For reference, reported inhibition for `COc1ccc(Nc2nc(C)cc(NCc3ccc(-c4c(C)noc4C)cc3)n2)cc1` stands at -5

For reference, reported inhibition for `Cc1[nH]c(C)c(-c2ccc(Oc3ccc(F)cc3)cc2)c(=O)c1Cl` stands at 4

For reference, reported inhibition for `CC1(C)N=C(N)N=C(N)N1c1ccc(Oc2ccc(Cl)cc2)c(Cl)c1` stands at -2
